These entries and their values trace back to patent US9440957B2.

IC50 by entry:
# measured target: EGFR(L858R/T790M) (Homo sapiens, UniProt P00533, L858R/T790M)
# Construct: purchased from Carna (GST-a.a. 669-1210)
# Sequence (P00533 669-1210 T790M/L858R): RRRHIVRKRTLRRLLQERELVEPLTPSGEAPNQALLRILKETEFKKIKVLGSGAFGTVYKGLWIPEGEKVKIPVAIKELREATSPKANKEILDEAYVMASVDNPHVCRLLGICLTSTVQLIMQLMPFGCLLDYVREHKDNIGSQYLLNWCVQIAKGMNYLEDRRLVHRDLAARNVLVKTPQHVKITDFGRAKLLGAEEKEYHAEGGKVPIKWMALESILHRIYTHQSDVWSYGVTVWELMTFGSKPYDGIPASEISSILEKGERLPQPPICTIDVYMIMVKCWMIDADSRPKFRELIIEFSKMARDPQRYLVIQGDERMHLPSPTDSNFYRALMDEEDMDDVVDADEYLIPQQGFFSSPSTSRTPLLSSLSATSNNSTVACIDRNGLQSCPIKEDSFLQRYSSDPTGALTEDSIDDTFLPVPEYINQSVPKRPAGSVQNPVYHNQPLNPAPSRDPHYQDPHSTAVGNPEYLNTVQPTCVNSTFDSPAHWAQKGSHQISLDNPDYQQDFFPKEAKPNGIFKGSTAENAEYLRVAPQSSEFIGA
# experiment summary: EGFR biochemical assay (HTRF), IC50 determinations
# experimental conditions: EGFR (L858R/T790M) with no pre-incubation; read-out: IC50 (μM) Column A
measured property: IC50 (µM)

compound	measured target	readout unit	lt gt eq	value measured
CNC/C=C/C(=O)N1CCCC[C@@H](n2c(NC(=O)c3ccnc(C)c3)nc3cccc(Cl)c32)C1	EGFR(L858R/T790M) (Homo sapiens, UniProt P00533, L858R/T790M)	µM	=	0.002
C=CC(=O)N1CCCCC(n2c(NC(=O)c3ccccc3)nc3cccc(C(=O)NCC(=O)OC)c32)C1 (centres unmarked)	EGFR(L858R/T790M) (Homo sapiens, UniProt P00533, L858R/T790M)	µM	=	0.62
C=CC(=O)N1CCCC(n2c(NC(=O)c3cccc(C(F)(F)F)c3)nc3cc(C)ccc32)CC1 (centres unmarked)	EGFR(L858R/T790M) (Homo sapiens, UniProt P00533, L858R/T790M)	µM	=	0.32
Cc1cccc2nc(NC(=O)c3cccc(S(C)(=O)=O)c3)n(C3CCCCN(C(=O)/C=C/CN(C)C)C3)c12 (centres unmarked)	EGFR(L858R/T790M) (Homo sapiens, UniProt P00533, L858R/T790M)	µM	=	0.002
C=C(CN1CCCCC1)C(=O)N1CCCC[C@@H](n2c(NC(=O)c3ccnnc3)nc3cccc(C)c32)C1	EGFR(L858R/T790M) (Homo sapiens, UniProt P00533, L858R/T790M)	µM	=	0.199
COc1ccc2nc(NC(=O)c3ccnc(C)c3)n([C@@H]3CCCCN(C(=O)/C=C/CN(C)C)C3)c2c1Cl	EGFR(L858R/T790M) (Homo sapiens, UniProt P00533, L858R/T790M)	µM	=	0.003
Cc1cccc2nc(NC(=O)c3ccc4ccccc4c3)n(C3CCCCN(C(=O)/C=C/CN(C)C)C3)c12 (centres unmarked)	EGFR(L858R/T790M) (Homo sapiens, UniProt P00533, L858R/T790M)	µM	=	0.005
Cc1cccc2nc(NC(=O)c3ccc(F)c(Cl)c3F)n(C3CCCCN(C(=O)/C=C/CN(C)C)C3)c12 (centres unmarked)	EGFR(L858R/T790M) (Homo sapiens, UniProt P00533, L858R/T790M)	µM	=	0.014
Cc1cc(C(=O)Nc2nc3cccc(Cl)c3n2[C@@H]2CCCCN(C(=O)/C=C/CN(C)C)C2)cc(C)n1	EGFR(L858R/T790M) (Homo sapiens, UniProt P00533, L858R/T790M)	µM	=	0.01
Cc1cc(C(=O)Nc2nc3cccc(Cl)c3n2[C@H]2CCCCN(C(=O)/C=C/CN(C)C)C2)cc(C)n1	EGFR(L858R/T790M) (Homo sapiens, UniProt P00533, L858R/T790M)	µM	=	1.67
Cc1cc(C(=O)Nc2nc3cccc(Cl)c3n2[C@@H]2CCCCN(C(=O)/C=C/CN(C3CC3)C3CC3)C2)ccn1	EGFR(L858R/T790M) (Homo sapiens, UniProt P00533, L858R/T790M)	µM	=	0.045
Cc1cccc2nc(NC(=O)c3cccc(C(F)(F)F)c3)n([C@@H]3COCCN(C(=O)/C=C/CN(C)C)C3)c12	EGFR(L858R/T790M) (Homo sapiens, UniProt P00533, L858R/T790M)	µM	=	0.005
Cc1cccc2nc(NC(=O)c3ccnc(Cl)c3)n([C@@H]3CCCCN(C(=O)/C=C/CN(C)C)C3)c12	EGFR(L858R/T790M) (Homo sapiens, UniProt P00533, L858R/T790M)	µM	<	0.001
C=CC(=O)N1CCCC[C@@H](n2c(NC(=O)c3ccnc(C)c3)nc3cc(CN4CCCC4)cc(C)c32)C1	EGFR(L858R/T790M) (Homo sapiens, UniProt P00533, L858R/T790M)	µM	=	0.001
C=CC(=O)N1CCC[C@@H](n2c(NC(=O)c3ccccc3)nc3cccc(C)c32)C1	EGFR(L858R/T790M) (Homo sapiens, UniProt P00533, L858R/T790M)	µM	=	0.048
Cc1cccc2nc(NC(=O)c3ccnnc3)n([C@@H]3CCCCN(C(=O)C4=COCCO4)C3)c12	EGFR(L858R/T790M) (Homo sapiens, UniProt P00533, L858R/T790M)	µM	=	1.01
Cc1cc(C(=O)Nc2nc3cccc(C)c3n2[C@@H]2CCCCN(C(=O)/C=C/CN(C)C)C2)cc(C)n1	EGFR(L858R/T790M) (Homo sapiens, UniProt P00533, L858R/T790M)	µM	=	0.004
COc1cccc(C(=O)Nc2nc3cccc(C)c3n2C2CCCCN(C(=O)/C=C/CN(C)C)C2)c1 (centres unmarked)	EGFR(L858R/T790M) (Homo sapiens, UniProt P00533, L858R/T790M)	µM	=	0.007
C=CC(=O)N1CCCC[C@@H](n2c(NC(=O)c3ccccc3)nc3cccc(CN4CCC(O)C4)c32)C1 (some centres unmarked)	EGFR(L858R/T790M) (Homo sapiens, UniProt P00533, L858R/T790M)	µM	=	0.001
Cc1cccc2nc(NC(=O)c3ccnc(N4CCCCC4)c3)n(C3CCCCN(C(=O)/C=C/CN(C)C)C3)c12 (centres unmarked)	EGFR(L858R/T790M) (Homo sapiens, UniProt P00533, L858R/T790M)	µM	<	0.001
